target: mpl-Rse.gD chimeric receptor (human, UniProt P40238 26-491); test: cell-based or functional assay
Sequence (P40238 26-491, change not shown): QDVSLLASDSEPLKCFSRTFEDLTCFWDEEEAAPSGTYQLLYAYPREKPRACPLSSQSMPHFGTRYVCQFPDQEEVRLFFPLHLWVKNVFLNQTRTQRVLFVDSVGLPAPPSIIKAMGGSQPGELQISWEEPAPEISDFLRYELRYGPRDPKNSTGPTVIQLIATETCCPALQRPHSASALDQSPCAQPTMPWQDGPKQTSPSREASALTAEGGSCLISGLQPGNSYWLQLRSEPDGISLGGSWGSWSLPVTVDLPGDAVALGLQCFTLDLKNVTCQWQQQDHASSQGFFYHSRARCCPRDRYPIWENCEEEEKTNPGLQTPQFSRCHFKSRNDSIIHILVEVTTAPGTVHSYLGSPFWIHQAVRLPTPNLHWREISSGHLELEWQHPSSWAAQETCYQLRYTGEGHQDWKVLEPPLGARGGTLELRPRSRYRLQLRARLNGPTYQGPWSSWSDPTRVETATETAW
MEASURE NAME: KIRA (ED50) (nM)
Write the value in nM as a bare number.

{"columns": ["BINDER", "ASSAY VALUE"],
 "data": [
  ["12B5 Fab (Fab, from another filing) scFv: MAQVQLVQSGGGLVRPGGSLSLSCAVSGITLRTYGMHWVRQAPGKGLEWVAGISFDGRSEYYADSVQGRFTISRDSSKNTLYLQMNSLRAEDTAVYYCARGAHYGFDIWGQGTMVTVSSGGGGTGGGGSGGGGSDIQMTQSPSTLSASIGDRVTITCRASEGIYHWLAWYQQKPGKAPKLLIYKASSLASGAPSRFSGSGSGTDFTLTISSLQPDDFATYYCQQYSNYPLTFGGGTELEIKRAA", 3],
  ["12D5 IgG (antibody, V domains shown) VH: QVQLVESGGGLVKPGGSLRLSCAASGFTFSSHNMNWVRQAPGKGLEWVSSISSSSSYIYYADSVKGRFTISRDNAKNSLYLQMNSLRAEDTAVYYCARDRGSTGMDVWGRGTLVTVSS VL: DIVMTQSPSTLSASIGDRVTITCRASEGIYHWLAWYQQKPGKAPKLLIYKASSLASGAPSRFSGSGSGTDFTLTISSLQPDDFATYYCQQYSNYPLTFGGGTELEIKR", 3],
  ["12D5 Fab (Fab, V domains shown) VH: QVQLVESGGGLVKPGGSLRLSCAASGFTFSSHNMNWVRQAPGKGLEWVSSISSSSSYIYYADSVKGRFTISRDNAKNSLYLQMNSLRAEDTAVYYCARDRGSTGMDVWGRGTLVTVSS VL: DIVMTQSPSTLSASIGDRVTITCRASEGIYHWLAWYQQKPGKAPKLLIYKASSLASGAPSRFSGSGSGTDFTLTISSLQPDDFATYYCQQYSNYPLTFGGGTELEIKR", 4]
]}

Any idea what KIRA (ED50) was measured for 12B5 scFv (scFv) MAQVQLVQSGGGLVRPGGSLSLSCAVSGITLRTYGMHWVRQAPGKGLEWVAGISFDGRSEYYADSVQGRFTISRDSSKNTLYLQMNSLRAEDTAVYYCARGAHYGFDIWGQGTMVTVSSGGGGTGGGGSGGGGSDIQMTQSPSTLSASIGDRVTITCRASEGIYHWLAWYQQKPGKAPKLLIYKASSLASGAPSRFSGSGSGTDFTLTISSLQPDDFATYYCQQYSNYPLTFGGGTELEIKRAA ? 1
